Answer each item with its documented growth.
test system: HOP-92 NSCLC; test: NCI-60 one-dose screen, 48 h (100 = growth as untreated, 0 = no growth, -100 = all killed); settings: 10 µM unless noted
About 83,000 compounds went through this panel and 20% of them were active in at least one assay; those are over-represented in the sample as a whole.
Number only, in %; omit the unit.

**Q:** Recall the recorded growth for "CCCCCCCCCCCCCCCCCCOc1ccccc1CC(=O)OCC[N+](CC)(CC)CC" with HOP-92 NSCLC and state it.
**A:** 6.81

**Q:** Provide value of growth for this record tested with HOP-92 NSCLC: "N#Cc1cccc(NC(=O)c2cc(-c3ccc(F)cc3F)ccc2O)c1"
**A:** -24.2

**Q:** Form field - read-out: growth; system: HOP-92 NSCLC; submitted item: "CS(=O)(=O)N(c1cc(-c2ccc3ncnc(Nc4ccc(F)c(Cl)c4)c3c2)cnc1Cl)S(C)(=O)=O"
**A:** -12.2

**Q:** Look up growth with HOP-92 NSCLC for this molecule: "CC1=C(C)C(=O)C(Nc2cccc(C(=O)OC(C)(C)C)c2)=C(Br)C1=O"
**A:** -32.5

**Q:** Write down the reported growth of "C/C(=C(/c1ccccc1)c1ccc(N2C(=O)c3cccc4c(N5CCN(C)CC5)ccc(c34)C2=O)cc1)c1ccccc1" , test system: HOP-92 NSCLC.
**A:** 67.4

**Q:** Kindly state the measured growth obtained for "CCCCCCNC(=O)Oc1ccc(/C(=C(\C)c2ccc(Cl)cc2)c2ccc(OCCN3CCCCC3)cc2)cc1" with HOP-92 NSCLC.
**A:** 47.6

**Q:** Which growth is reported with HOP-92 NSCLC for this entry: c1cc2nc(-c3cn[nH]c3)c3c(c2cc1-c1cn[nH]c1)C1CCC3C1 (configuration not stated) ?
**A:** 28

**Q:** Param readout= growth; system= HOP-92 NSCLC; entry= "CCc1ccc(Oc2c(-c3ccc(OCCc4cccc(C(F)(F)F)c4)cc3O)n[nH]c2C(F)(F)F)cc1" ; returns value.
**A:** -5.8

**Q:** Kindly state the measured growth obtained for COc1ccc(C2CC(c3ccc(Nc4ccnc5cc(Cl)ccc45)cc3)=NN2C=O)cc1 (configuration not stated) with HOP-92 NSCLC.
**A:** 48.3

**Q:** Record lookup: for HOP-92 NSCLC, what growth belongs to "O=C(Nc1ccc(-c2nc(-c3cccc(OCCN4CCOCC4)c3)c(-c3ccnc(Br)c3)[nH]2)cc1)c1ccccc1" ?
**A:** 23.2

**Q:** GET /values?readout=growth&system=HOP-92 NSCLC&item= "C[C@H]1[C@H]2[C@H]3CC[C@@H]4[C@@]5(C)CC[C@H](O)C(C)(C)[C@@H]5CC[C@@]4(C)[C@]3(C)CC[C@]23CO[C@]1(C)[C@@H](C(=O)/C=C\c1cccnc1)C3"
**A:** 79.1

**Q:** Quick check: growth on HOP-92 NSCLC, item N#CC1=C(N)Oc2c(sc3c(Br)cccc23)C1c1ccc([N+](=O)[O-])cc1 (configuration not stated) ?
**A:** -7.19

###

system: HCT-15 colon; assay: NCI-60 one-dose screen, 48 h; conditions: 10 µM unless noted
This is part of a sample that, as a whole, favours compounds with a hit. Of some 83,000 tested, about 20% had one in any assay. The source made the active and inactive calls. How the source made its calls: active means growth percent below 10; inactive means the rest.
Select the matching outcome among active, inactive

**Q:** Tell me the recorded outcome of this test for CN(C(=O)NCc1cccc(F)c1Cl)[C@H](COC(=O)Nc1cc2ccccc2cn1)CC(O)CO (stereo partly specified) .
**A:** inactive

**Q:** // return assay outcome for "CN(C)c1ccc(/C=N\Nc2cc(=O)[nH]c3ccc(Cl)cc23)cc1"
**A:** inactive

**Q:** Outcome? Cc1nc2ccccc2n1-c1ncnc2c1CC(C)c1ccccc1N2C (stereo unspecified)
**A:** inactive

**Q:** Which result was noted for this compound in the test: "CC(=O)O.CN1[CH-]N(Cc2ccc(C#N)cc2)c2ccccc21.[Ag+]"
**A:** inactive

**Q:** Look up the recorded call for "O=C(CCN1C(=O)/C(=C/c2ccc(O)cc2)SC1=S)Nc1ccccc1" in this test.
**A:** inactive

**Q:** Short answer needed: outcome of this test for "O=C(CCN1C(=O)/C(=C/c2ccc(O)cc2)SC1=S)Nc1ccc(Cl)cc1" ?
**A:** inactive

**Q:** Which result was noted for this compound in the test: "Oc1ccc(-c2nc3ccc4[nH]ncc4c3c3c2CCCC3)c2cccnc12"
**A:** active

**Q:** Kindly provide the recorded test outcome for the following compound: "COc1cccc(Cc2nn3cc(-c4ccccc4)nc3s2)c1"
**A:** inactive

**Q:** Query: recorded result category for "COc1ccc(-c2conc2-c2ccccc2)cc1" in this test
**A:** inactive

**Q:** Recorded call for "COC(=O)Nc1ccc(-c2nc(-c3cccc(OC)c3)c(-c3ccnc(Br)c3)[nH]2)cc1" ?
**A:** inactive

**Q:** Could you kindly confirm the outcome this assay logged for COc1ccc(-c2cc3c4c(nc5ccccc5c4c2)CC(c2cc(OC)c(OC)c(OC)c2)O3)cc1 (stereo unspecified) ?
**A:** inactive

###

test system: SNB-75 CNS; test: NCI-60 one-dose screen, 48 h; conditions: 10 µM unless noted
About 83,000 compounds went through this panel and 20% of them were active in at least one assay; those are over-represented in the sample as a whole. Active and inactive are the calls of the source. Rule for the calls: active = growth percent below 10; inactive = the rest.
Form entry, call: pick from YES (active), NO (inactive)

**Q:** Outcome? "COc1ccc(-c2ncnc3c2ncn3CC#CCCl)cc1"
**A:** NO

**Q:** Returns: the outcome recorded for "Cc1ccc(C(=O)N/N=C/c2cccc(Oc3ccccc3)c2)cn1" in this assay.
**A:** NO

**Q:** Could you check what this test reported for "O=c1c2cc(F)ccc2sc2c(N3CCNCC3)nc3ccc(F)cc3c12" ?
**A:** NO

**Q:** Each molecule tested received a call. Report the one for "O=C(CCN1C(=O)/C(=C/c2ccc(O)cc2)SC1=S)Nc1ccc(Cl)cc1" .
**A:** NO

**Q:** # lookup: test call for COc1cc(C2CC(c3cccc(Br)c3)=NN2C(C)=O)cc(OC)c1OC (stereo not given)
**A:** NO

**Q:** Status in this test for "C=C1C(=O)O[C@H]2[C@H]1CC/C(COC(=O)NCCOCCOCC(=O)Nc1ccc(OC)c(C(N)=O)c1O)=C\CC[C@@]1(C)O[C@@H]21" ?
**A:** NO

**Q:** Assay outcome for C/C=C(\C)C(=O)N[C@H]1[C@@H](OC(C)=O)C[C@]2(C)C3CC[C@@]4(C)C(CC[C@@H]4C(C)N(C)C)C3CCC2[C@H]1O (stereo not given in full) : what was it?
**A:** NO

**Q:** Record request — test call for CCC12CCC[N+]3([O-])CCC4(C(=Nc5ccccc54)C(O)(C(=O)OC)C1)C23 (stereo not given)
**A:** NO

**Q:** For this molecule, state the assay outcome: "Cc1cc(=O)[nH]c(=O)n1Cc1cn(-c2c3ccccc3nc3ccccc23)nn1"
**A:** NO

**Q:** Please state the recorded outcome for this molecule: Cc1ccc(C(=O)NN2C(=O)CSC2c2cccc([N+](=O)[O-])c2)cn1 (stereo not given)
**A:** NO

**Q:** Which result was noted for this molecule in the test: COC1=C(C)C(=O)c2c(c(CCCl)c3n2CCC3O)C1=O (stereo not given)
**A:** YES

**Q:** Each molecule tested received a call. Report the one for "O=C1CN(CCN2CC(=O)N(Cc3ccccc3)C(=O)C2)CC(=O)N1Cc1ccccc1" .
**A:** NO

**Q:** What classification did "C=C1CC[C@H](C(C)C)[C@@H]2[C@H]1[C@H]1CC(=C)[C@@H](O)CC[C@@](C)(O)[C@@H]2O1" end up with in this test?
**A:** NO

**Q:** In this assay, the call recorded for OC(COc1ccccc1)CN1CCN(c2ccc(Cl)cc2)CC1 (stereo not given) was what?
**A:** NO

**Q:** Test call for this molecule, please: "COc1nc2ccccc2cc1-c1nc2c(cnn2-c2ccccc2)c(=O)[nH]1"
**A:** NO

**Q:** Please let me know the test result on file for "NS(=O)(=O)c1ccc(N=Nc2ccc(-c3nn4cc(-c5ccccc5)nc4s3)cc2)cc1" .
**A:** NO

**Q:** Please state the recorded outcome for this molecule: "Cc1ccc2sc3c(NCCCN)nc4ccccc4c3c(=O)c2c1"
**A:** NO

**Q:** // param item: CC(=O)CC(c1cccs1)c1c(-c2ccccc2)[nH]c2ccccc12 (stereo not given) ; yields the recorded call
**A:** NO

**Q:** For this molecule, state the assay outcome: "COc1ccc(C(=S)N2CCN(c3cccc(C)c3)CC2)cc1OC"
**A:** NO

**Q:** Would you mind telling me which call this test gave "CCOC(=O)c1c(C)oc2ncnc(N3CCN(C(=O)COc4ccc(C(C)(C)C)cc4)CC3)c12" ?
**A:** NO

**Q:** Hey, what did the test say about "Cc1ccc(S(=O)(=O)Oc2ccc(NC(=O)c3ccc(Cl)cc3)cc2)cc1" ?
**A:** NO

**Q:** So what was the verdict on "O=S(=O)(Nc1ccc(-c2nc(-c3cccc(OCCN4CCOCC4)c3)c(-c3ccnc(Br)c3)[nH]2)cc1)c1ccccc1" in this test?
**A:** YES

**Q:** Any idea what this test logged for CC(=O)N1N=C(c2ccc(Nc3nc(Nc4ccc(F)cc4)nc(Nc4ccc(Cl)cc4)n3)cc2)CC1c1ccc(Cl)cc1 (stereo not given) ?
**A:** NO

**Q:** Recorded test call requested for "COc1cc(C(=O)c2cc(C)c3[nH]c4ccc(O)cc4c3c2C)cc(OC)c1OC"
**A:** NO

**Q:** # fetch the recorded call for "Cc1cccc(NC2=C(Cl)C(=O)c3nc(C)ccc3C2=O)c1" here
**A:** YES

**Q:** Entry "O=c1c2cc(F)ccc2sc2c(NCCCNCCO)nc3ccccc3c12" : call = ?
**A:** NO

**Q:** Any idea what this test logged for "O=C(N/N=C/c1ccc(Cl)cc1)c1ccc(C(F)(F)F)nc1Nc1cccc(C(F)(F)F)c1" ?
**A:** NO

**Q:** Please share the test call associated with "COc1ccc2sc3c(NCCO)nc4ccccc4c3c(=O)c2c1" .
**A:** NO

**Q:** State the result this test recorded for "COc1cc2cc(Oc3ccc(NC(=O)Nc4ccc(F)c(C(F)(F)F)c4)cc3)c(C)nc2cc1OCCN1CCOCC1" .
**A:** NO

**Q:** What classification did "COc1ccc(C(=O)N=Nc2c(O)n(C)c3ccccc23)cc1" end up with in this test?
**A:** NO

**Q:** Write down the call the test reported for this molecule. Item: "CCCCn1c(-c2ccc(C(=O)O/N=C(\N)c3ccc(OC)cc3)cc2)nc(-c2ccccc2)c1-c1ccccc1"
**A:** YES

**Q:** Could you kindly confirm the outcome this assay logged for "CN1CCN(c2ccc(-c3ccc4ncc(C#N)c(Nc5ccc(F)c(Cl)c5)c4c3)cc2)CC1" ?
**A:** NO

**Q:** Could you kindly confirm the outcome this assay logged for "O=C1COCCN1c1ccc(NCc2cn(C(=O)c3ccc(Cl)cc3)c3ccccc23)cc1" ?
**A:** NO

**Q:** // param item: "Fc1cc(-c2nnc3sc(-c4ccc(Cl)cc4Cl)nn23)c(Cl)cc1Cl" ; yields the recorded call
**A:** NO

**Q:** Returns: the outcome recorded for "O=C(Cc1ccc2c(c1)OCCO2)Nc1nc2ccc(F)cc2s1" in this assay.
**A:** NO
